- assay-remarks: growth inhibition of wild-type GFP E. coli, dose response, h38 mutant RFP, cherry-pick (AID 977622)
- experimental-context: 24 h; E. coli mixed culture, total growth OD600 at 50 uM, at 50 µM
The whole screen tested about 1,900 compounds, of which fewer than 10 were called active. Inconclusive results (about 39%) are left out. Only a sample is shown.
Measured activity change accompanies every entry in the list below.
readout-type: activity change (%)

compound=COc1ccccc1NC(=O)CSc1nccn1Cc1ccc(F)cc1 obs_value=-34.2
compound=O=C(Nc1ccc(F)cc1)N1CCCCN2[C@@H](CO)[C@H](c3ccc(-c4ccncc4)cc3)[C@@H]2C1 obs_value=12
compound=O=C(C[n+]1ccn(-c2ccccc2)c1)c1ccc([N+](=O)[O-])cc1 obs_value=-2.75
compound=O=C(Nc1cccc(S(=O)(=O)c2cccc(NC(=O)C3CC3)c2)c1)C1CC1 obs_value=-38.1
compound="CCC(C(=O)Nc1ccsc1C(=O)OC)c1ccccc1 (centres undefined)" obs_value=-5.91
compound=Cc1ccc(-n2cc(CNCCN3CCOC3=O)c(-c3ccc(F)cc3)n2)cc1 obs_value=-3.42
compound=Cc1ccc2nc(-c3ccc(Cl)cc3)c(Cc3ccccc3C(F)(F)F)n2c1 obs_value=-10.5
compound=C[C@H](CO)N1C[C@H](C)[C@H](CN(C)C(=O)Nc2ccc3c(c2)OCO3)Oc2c(NC(=O)Nc3ccccc3)cccc2C1=O obs_value=-5.63
compound=Cc1noc(C)c1NC(=O)Nc1ccc2c(c1)C(=O)N([C@@H](C)CO)C[C@@H](C)[C@@H](CN(C)C(=O)Nc1ccc3c(c1)OCO3)OCCCC[C@@H](C)O2 obs_value=-2.53
